Some molecules, each annotated with its measured Percent Effect.
System: Wolbachia pipientis
procedure_details: Anti-Wolbachia Cell-Based Screen
Type: functional
Set-up: scale not given: in the data most compounds retested in dose-response had high values
condition_description: 5 µM
About 13,000 (27%) of roughly 48,000 compounds showed an effect of 50% or more. Some of the results follow.
Give the number first and the unit second.

Sample answers from the record:
Cc1ccc2oc(N3CCN(CC(=O)NC(C)C)CC3)nc2c1 : 0.7244%
Cc1nc(CN2CC3(CCN(c4ncc(F)cn4)C3)CC2=O)cs1.O=C(O)C(F)(F)F (stereo not drawn) : 22.92%
CCCNC(=O)COc1cc(C)c2c(C)nn(-c3ccccc3)c2n1 : 102.4%

Inquiry: For the molecule Cc1ccc(OCC(=O)NCc2sccc2C)nc1 , what Percent Effect is on record?
Reply text: -2.294%

====

Tested on: Wolbachia pipientis
procedure_details: Anti-Wolbachia Cell-Based Screen
Type: functional
Set-up: scale not given: in the data most compounds retested in dose-response had high values
condition_description: 5 µM
The whole screen tested about 48,000 compounds, of which about 13,000 (27%) showed an effect of 50% or more. The list shows a part of the results.
Reported Percent Effect values are given for each entry in this list.
Output spec: scalar in %, unitless text.

Before answering, review these 2 worked examples.
O=C(NCCc1ccn(-c2ccccc2)n1)N1CCC1 : 5.708
CC(C)Nc1nc2c(cc1C(=O)O)CCN(Cc1ccsc1)CC2.O=C(O)C(F)(F)F.O=C(O)C(F)(F)F : 98.93

Query compound follows.
Inquiry: Write down the reported Percent Effect of O=C(NCCC1Cc2ccccc2C1)N1CCCC(O)C1 (stereo not drawn) , test system: Wolbachia pipientis.
Reply text: -12.54

====

System: Wolbachia pipientis
procedure_details: Anti-Wolbachia Cell-Based Screen
Format: functional
Parameters: scale not given: in the data most compounds retested in dose-response had high values
condition_description: 5 µM
About 13,000 (27%) of roughly 48,000 compounds showed an effect of 50% or more. Some of the results follow.
readout_name: Percent Effect (%)
Kindly provide the numeric value in % only, without the unit symbol.

Worked set:
CNC(=O)Cc1noc(Cc2cccc(Cl)c2)n1 : 10.38
CO[C@H]1CCN(Cc2c(C)noc2C)[C@@H]2CN(Cc3ccncc3)C[C@H]12.O=C(O)C(F)(F)F.O=C(O)C(F)(F)F.O=C(O)C(F)(F)F : 106.3
Cc1cn[nH]c1C1CCCCN1C(=O)CCN1CCCCCC1 (configuration not stated) : -3.23
Cc1cc(CC(=O)N(C)Cc2cccc(OC(C)C)c2)n[nH]1 : 0.9226

Inquiry: Lab note: need Percent Effect for COCCCS(=O)(=O)N1CCN(Cc2cccn2C)CC1 on Wolbachia pipientis, anyone have it?
Reply text: -42.29

Inquiry: Enter reported Percent Effect observed with Wolbachia pipientis for Cc1ncsc1CCN(C)C(=O)CN1C(=O)OC[C@@H]1c1ccccc1
Reply text: -3.352

Inquiry: Recorded Percent Effect for Cc1nc(CNC(=O)NCC(O)c2cccc(Cl)c2)cs1 (configuration not stated) with Wolbachia pipientis, please?
Reply text: -14.28

====

// Percent Effect lookup, one value per entry
Tested on: Wolbachia pipientis
procedure_details: Anti-Wolbachia Cell-Based Screen
Assay type: functional
Design: scale not given: in the data most compounds retested in dose-response had high values
condition_description: 5 µM
Out of some 48,000 compounds screened, about 13,000 (27%) showed an effect of 50% or more. The list shows a part of the results.
Give a bare numeral; the unit % is implied.

Sample answers from the record:
CCc1nc(CN(C)CC2CCN(CC(C)O)CC2)no1 (stereo unspecified) : -10.69
CCSC(C)c1nc(-c2ccc(C)nn2)no1 (stereo unspecified) : 3.709

# input for lookup
Inquiry: Quick one: Percent Effect for CC(C)S(=O)(=O)N1CCCC(c2cccc(C(=O)O)c2)C1 (stereo unspecified) ?
Reply text: 13.9

====

Tested on: Wolbachia pipientis
procedure_details: Anti-Wolbachia Cell-Based Screen
Format: functional
Set-up: scale not given: in the data most compounds retested in dose-response had high values
condition_description: 5 µM
Hit rate of the full screen: of about 48,000 compounds, about 13,000 (27%) showed an effect of 50% or more. Some of the results follow.
readout_name: Percent Effect (%)
Please state the figure in %; there is no need to write the unit.

Example entries begin here.
CC1CCN(c2cc(CCC3CCCN3)ncn2)CC1.Cl (configuration not stated) : 81.62
CC1CCN(c2cc(-n3cnc(C(=O)N4CCSCC4)c3)ncn2)CC1 : 13.65
CCS(=O)(=O)c1ccc(NCc2csc(C(C)C)n2)cc1 : 5.353
CC(C)N1CCC(c2cccc(C(=O)N(C)C)n2)CC1 : 126.2
Cc1ccc(C(=O)N2CCN(c3ncnc4nc(N)ccc34)CC2)cc1 : -17.64

Inquiry: Using the record for CCn1nc(C)c2ccn(CC(=O)NCC3CCCO3)c(=O)c21 (configuration not stated) , report its Percent Effect.
Reply text: 132.9

Inquiry: Any idea what its Percent Effect is? The compound is CN1CCC(c2cccc(C(=O)N(C)C)n2)CC1
Reply text: 118.3

Inquiry: Quick one: Percent Effect of Cl.c1nc(CCC2CCCN2)cc(N2CCCOCC2)n1 (configuration not stated) ?
Reply text: -10.48

Inquiry: GET /values?readout=Percent Effect&item= Cc1cc(NC(=O)C(C)N2CCCN(c3nccs3)CC2)on1 (configuration not stated)
Reply text: -9.765

Inquiry: Recorded Percent Effect for CNC(=O)C(C)(C)N(C)C(=O)c1cc(COc2ccccc2OC)[nH]n1 , please?
Reply text: -2.904

Inquiry: Recorded Percent Effect for CC(C)N1CCC(c2ccnc3c(C(=O)N4CCCC4)ncn23)CC1 , please?
Reply text: -18.47

Inquiry: Recorded Percent Effect of Cc1nc(C(C)C)ncc1C(=O)N1CCc2c(nc(N(C)C)[nH]c2=O)C1 , please.
Reply text: -2.755

Inquiry: Which value of Percent Effect has been reported for OCC1CCCN1c1cc(N2CCC(OC3CCCC3)CC2)ncn1 (configuration not stated) in the records?
Reply text: 10.66

====

Test system: Wolbachia pipientis
procedure_details: Anti-Wolbachia Cell-Based Screen
Assay type: functional
Design: scale not given: in the data most compounds retested in dose-response had high values
condition_description: 5 µM
Hit rate of the full screen: of about 48,000 compounds, about 13,000 (27%) showed an effect of 50% or more. Some of the results follow.
readout_name: Percent Effect (%)
Unit % implied. Number only.

Below, 2 compounds whose answers are already recorded.
Cc1noc(C)c1CN(C)C(=O)NC(C)Cc1ccco1 (stereo not given) : 8.322
Cc1nc2cc(C3CCN(C(=O)c4ccccn4)CC3)nn2c(O)c1C : 104

Inquiry: Need Percent Effect, item CC(C)c1noc(CN(C)C(=O)c2ccccc2-c2nc[nH]n2)n1
Reply text: -15.19

Inquiry: Fill blank: measured Percent Effect of the compound O=C(O)C1(Cc2ccccc2Cl)CCN(c2ncccn2)CC1 is ____.
Reply text: 4.771

Inquiry: Sample C[C@@H](N)C(=O)N1CCC(c2[nH]ncc2-c2ccccc2)CC1 — what was its Percent Effect?
Reply text: 132.4

====

Tested on: Wolbachia pipientis
procedure_details: Anti-Wolbachia Cell-Based Screen
Assay type: functional
Set-up: scale not given: in the data most compounds retested in dose-response had high values
condition_description: 5 µM
About 13,000 (27%) of roughly 48,000 compounds showed an effect of 50% or more. This is one part of the list.
Note to self: use satisfied only for Percent Effect readings below 10%; a reading exactly at 10% still gets not satisfied.

Cc1nc(C)n(CC2CN(CCCOc3ccccc3C)CCO2)n1 (centres undefined) : satisfied
Cc1ccc(C(CNC(=O)c2c(C)noc2C(C)C)N(C)C)cc1 (centres undefined) : not satisfied
Cc1nc(C)n(CC2CN(Cc3nc4ccccc4s3)CCO2)n1 (centres undefined) : not satisfied
Cc1cc(C)n(CC2CN(Cc3nc4ccccc4s3)CCO2)n1 (centres undefined) : not satisfied
COCCN1CCC(CN(CC2CCCO2)C(=O)Cc2cccs2)CC1 (centres undefined) : not satisfied

Inquiry: Bench note: check whether CCN(CC)c1ccc(C(=O)N2C[C@@H]3CC[C@H](C2)N(CCOC)C3)cc1 shows Percent Effect below 10%
Reply text: not satisfied

Inquiry: I wonder whether CCn1ccnc1CN(C)c1cc(N(C)C)ncn1 has Percent Effect below 10%. Can you tell?
Reply text: not satisfied

Inquiry: Does N#Cc1cc2c(nc1SCc1cc(O)nc(O)n1)CCCC2 have Percent Effect strictly under 10%?
Reply text: not satisfied

Inquiry: Percent Effect strictly < 10% for this compound? CC1CCCN(C(=O)NCC(F)F)C1 (centres undefined)
Reply text: satisfied

Inquiry: Below 10% on Percent Effect? Entry COc1ccccc1-n1nc(CC(C)C)nc1Cc1nnc(N)s1
Reply text: not satisfied

Inquiry: Regarding CCC(CC)c1cc(C(=O)N2CCN(C(C#N)C(C)C)CC2)on1 (centres undefined) , kindly confirm whether its Percent Effect is beneath 10%.
Reply text: satisfied

Inquiry: Bench note: check whether Cc1nc(C)n(CC2CN(CCCOc3ccccc3)CCO2)n1 (centres undefined) shows Percent Effect below 10%
Reply text: not satisfied

Inquiry: is_below(Percent Effect, 10%) for CC(C)Cc1ncc2c(n1)CN(C(=O)c1ccc(Cn3ccnc3)o1)C2 ?
Reply text: satisfied

Inquiry: A record lists CN(C)C1COC2(CCN(Cc3nccs3)CC2)C1.O=C(O)C(F)(F)F.O=C(O)C(F)(F)F (centres undefined) . Is its Percent Effect below 10%?
Reply text: not satisfied

Inquiry: # TODO verify Percent Effect < 10% strictly for this compound: N#Cc1cc2c(nc1O)CCCCC2
Reply text: not satisfied

Inquiry: Hello, is Percent Effect of the following compound strictly smaller than 10%? CC(C)CN1CCC2(CCN(Cc3nccs3)CC2)C1=O.O=C(O)C(F)(F)F
Reply text: satisfied
